Test: Critical micelle concentration (CMC) by dye solubilization (Orange OT or DPH)
Assay type: physicochemical
Conditions: determined by DPH (diphenylhexatriene) or Orange OT
Measurement Name: CMC (mM)

A selection of reference data follows.
CCCCCCCCC(=O)NC(CO[C@@H]1O[C@H](CO)[C@@H](O)[C@H](O)[C@H]1O)CO[C@@H]1O[C@H](CO)[C@@H](O)[C@H](O)[C@H]1O ... 77
CCCC[C@]1(CC(=O)NCCO[C@H]2OC(CO)[C@H](O[C@@H]3OC(CO)[C@H](O)C(O)[C@H]3O)C(O)[C@H]2O)C2C[C@@H]3C[C@H](C2)C[C@@H]1C3 (stereo partly drawn) ... 2.6
CCCCC(CCCC)(CC(=O)NC(CO[C@H]1OC(CO)[C@H](O)C(O)[C@H]1O)CO[C@H]1OC(CO)[C@H](O)C(O)[C@H]1O)c1ccccc1 (stereo partly drawn) ... 3.6

[1] CCCCC(CCCC)(CC(=O)NC(CO[C@@H]1O[C@H](CO)[C@@H](O)[C@H](O)[C@H]1O)(CO[C@@H]1O[C@H](CO)[C@@H](O)[C@H](O)[C@H]1O)CO[C@@H]1O[C@H](CO)[C@@H](O)[C@H](O)[C@H]1O)C1CCCCC1
[2] CCCCCCCCCCCCCCC(=O)NC(CO[C@@H]1O[C@H](CO)[C@@H](O)[C@H](O)[C@H]1O)CO[C@@H]1O[C@H](CO)[C@@H](O)[C@H](O)[C@H]1O
[3] CCCCC(CCCC)(CC(=O)NC(COC1OC(CO)C(O)C(O)C1O)COC1OC(CO)C(O)C(O)C1O)C1CCCC1 (stereo not drawn)
[4] O=C(NCCOC1OC(CO)C(OC2OC(CO)C(O)C(O)C2O)C(O)C1O)C(c1ccccc1)c1ccccc1 (stereo not drawn)
Query: Order the entries by their reported CMC, beginning at the minimum. Order the labels as requested and give them as your answer.
Reply: 2, 3, 1, 4
(2: 0.17 mM, 3: 2.25 mM, 1: 3.7 mM, 4: 85.3 mM)

###

Experiment: Critical micelle concentration (CMC) by dye solubilization (Orange OT or DPH)
Assay type: physicochemical
Settings: determined by DPH (diphenylhexatriene) or Orange OT
Measurement Name: CMC (%)

A selection of reference data follows.
CCCCCC(CCCCC)(CC(=O)NC(CO[C@@H]1O[C@H](CO)[C@@H](O)[C@H](O)[C@H]1O)CO[C@@H]1O[C@H](CO)[C@@H](O)[C@H](O)[C@H]1O)c1ccccc1 [TPA 35] ... 0.083
CCCCCCC(CCCCCC)(CC(=O)NC(CO[C@@H]1O[C@H](CO)[C@@H](O)[C@H](O)[C@H]1O)CO[C@@H]1O[C@H](CO)[C@@H](O)[C@H](O)[C@H]1O)c1ccccc1 [TPA 36] ... 0.04
CCCCCCCCCCCCC(=O)NC(CO[C@@H]1O[C@H](CO)[C@@H](O)[C@H](O)[C@H]1O)CO[C@@H]1O[C@H](CO)[C@@H](O)[C@H](O)[C@H]1O [C12-MPA2] ... 0.15

[a] O=C(CC1(C2CCCCC2)CCCCC1)NC(CO[C@@H]1O[C@H](CO)[C@@H](O)[C@H](O)[C@H]1O)CO[C@@H]1O[C@H](CO)[C@@H](O)[C@H](O)[C@H]1O [TPA 50]
[b] CCCCCC[C@]1(CC(=O)NC(CO[C@H]2OC(CO)[C@H](O)C(O)[C@H]2O)CO[C@H]2OC(CO)[C@H](O)C(O)[C@H]2O)C2C[C@@H]3C[C@H](C2)C[C@@H]1C3 (some centres unmarked) [TPA 52]
Query: # returns the entry with the larger CMC (%); inputs a and b # answer = label of selected item
Reply: a
(a: 1.19%, b: 0.075%)
